Biological target: T1, Recombinant DENV-2 sE (1-396) from strain 16681-PDK53 with C-terminal AviTag and poly-histidine tags (Dengue virus serotype 2 strain …, UniProt P29991 281-676, biotinylated on the AviTag for BLI)
T1 construct: Produced in Expi293F cells; biotinylated for BLI; also called DENV-2 E
Assay: ELISA on DENV-2 E
observed.property: binding result

>>> result("MZ56 (antibody, V domains shown) VH: EVQLVESGGDLVQPGGSLRLSCAASGFTFSNYAMHWVRQAPGKGLESVSAIGSNGDSIFYASSVKGRFTISRDNSKNTLYLQMGSLRADDMAVYFCARGWYYYDSRAYWYFDLWGRGTLVTVSS VL: QPVLTQPASVSGSPGQSITISCTGTTSDVDDYNHVSWYQQYPGKAPRVMLYDVTKRPSGVPDRFSGSKSGNTASLTISGLQSEDEADYYCCSFADSHAIFGGGTKVTVLG")
"binds"
>>> result("MZ4 (antibody, V domains shown, also called MHRP ZIKV-1004) VH: QVHLQESGPGLVRPSETLSLTCTVSDGSISSYYWSWIRQPPGKGLEWIGSIYYTGSTNYNPSLKSRVTMSVDTSKNQFSLRLNSVTAADTAMYYCAGLDRYSWNEGGDHWGQGILVSVSS VL: QPVLTQPPSASGTPGQRVSISCSGSRSNLGKNTVNWYQQLPGTAPKLLIYNHSRRPSGVPERFSGSKSGTSASLAISGLQSEDEADYFCAAWDDSLNGLYVFGTGTKVTVLR")
"binds"
